Each recorded value in this set is attributed to paper PMC8453901.

# assay-procedure: Study 1 SAD part: plasma pharmacokinetics after single oral doses
# Format: in vivo, human
# measurement-setup: male, human, plasma, oral; single 90 mg; arithmetic mean (CV%); read-out: t1/2,λz (converted)
# Protocol: GLPG1205 or matching placebo were administered as an oral nanosuspension in the morning in a fed condition as an outpatient. […] GLPG1205 plasma concentrations were determined using a validated liquid chromatography with tandem mass spectrometry method. […] A QTRAP6500, QTRAP4000, or API4000 mass spectrometer (AB Sciex, Nieuwerkerk aan den Ijssel, The Netherlands) equipped with a TurboIonSpray probe operated in the multiple reaction monitoring in positive mode was used for quantification. […]
assay-metric: half-life (h)
Field: numeric (h). Do not append units.

Task: Item `O=c1nc(OC[C@@H]2COCCO2)cc2n1CCc1cc(C#CC3CC3)ccc1-2` has what recorded half-life?
Output: 57.7
